Each recorded value in this set is attributed to ChEMBL document CHEMBL4689842.

Population Fragmented Nuclei (%) listing for selected compounds.
# Test system: U2OS
# Method Summary: Multiplex assay against U2OS
# Format: toxicity, cell-based
# Assay Context: human, 12 h, 1 µM, compound concentration 1 uM, replicate 1

These recorded examples may help you get a feel for the data.
[[record]]
compound = "CCOc1cc(N2CCC(O)CC2)ccc1Nc1ncc2c(n1)N(C1CCCC1)CCC(=O)N2C"
target_under_test = "U2OS"
recorded_endpoint = "Population Fragmented Nuclei (%)"
observed_measurement = "5%"

[[record]]
compound = "CNC(=O)c1cc(Oc2ccc(NC(=O)Nc3cc(C(C)(C)C)nn3-c3ccc4ncccc4c3)c(F)c2)ccn1 [REBASTINIB]"
target_under_test = "U2OS"
recorded_endpoint = "Population Fragmented Nuclei (%)"
observed_measurement = "3%"

[[record]]
compound = "Nc1ccc(C(=O)Nc2cccc(-c3nc(N4CCOCC4)c4oc5ncccc5c4n3)c2)cn1"
target_under_test = "U2OS"
recorded_endpoint = "Population Fragmented Nuclei (%)"
observed_measurement = "20%"

[[record]]
compound = "Cl.Cl.NC1(c2ccc(-c3nc4ccn5c(=O)[nH]nc5c4cc3-c3ccccc3)cc2)CCC1"
target_under_test = "U2OS"
recorded_endpoint = "Population Fragmented Nuclei (%)"
observed_measurement = "11%"

[[record]]
compound = "CCC(=O)O[C@]1(C(=O)SCF)[C@H](C)C[C@H]2[C@@H]3C[C@H](F)C4=CC(=O)C=C[C@]4(C)[C@@]3(F)[C@@H](O)C[C@@]21C [FLUTICASONE PROPIONATE]"
target_under_test = "U2OS"
recorded_endpoint = "Population Fragmented Nuclei (%)"
observed_measurement = "8%"

[[record]]
compound = "CNc1oc(-c2cccc3ccccc23)nc1C#N"
target_under_test = "U2OS"
recorded_endpoint = "Population Fragmented Nuclei (%)"
observed_measurement = "22%"

[[record]]
compound = "COc1ccc(NS(=O)(=O)c2sc3ccc(Cl)cc3c2C)cc1N1CCNCC1.Cl"
target_under_test = "U2OS"
recorded_endpoint = "Population Fragmented Nuclei (%)"
observed_measurement = "12%"


Req: Complete the entry with Population Fragmented Nuclei (%) for `c1ccc2oc(-c3csc(C4CCN(Cc5nc6ncccc6[nH]5)CC4)n3)cc2c1`
Resp: 2%

###

# Tested on: HEK-293T
# Method Summary: Multiplex assay against HEK293T
# Type: toxicity, cell-based
# Assay Context: human, 24 h, 10 µM, compound concentration 10 uM, replicate 2
Hi, to clarify the labels: Met covers Population Fragmented Nuclei (%) from 10% upward, Not met covers anything below 10%.

Reference set (3 entries):
[[record]]
compound = "Cl.Cl.Nc1ncnc2c1c(-c1cccc(OCc3ccccc3)c1)cn2[C@H]1C[C@@H](CN2CCC2)C1"
qualitative_label = "Met"

[[record]]
compound = "CC(C)(C)c1cnc(CSc2cnc(NC(=O)C3CCNCC3)s2)o1"
qualitative_label = "Not met"

[[record]]
compound = "COc1ccc(NS(=O)(=O)c2sc3ccc(Cl)cc3c2C)cc1N1CCNCC1.Cl"
qualitative_label = "Not met"


Req: For this compound, is measured Population Fragmented Nuclei (%) 10% or higher? `O=C(O)c1ccc2cc(-c3ccc(O)c(C45CC6CC(CC(C6)C4)C5)c3)ccc2c1`
Resp: Met

Req: For this compound, is measured Population Fragmented Nuclei (%) 10% or higher? `CNc1oc(-c2cccc3ccccc23)nc1C#N`
Resp: Met

Req: For this compound, is measured Population Fragmented Nuclei (%) 10% or higher? `CCOc1cc2ncc(C#N)c(Nc3ccc(OCc4cccc(F)c4)c(Cl)c3)c2cc1NC(=O)/C=C/CN(C)C`
Resp: Met

Req: For this compound, is measured Population Fragmented Nuclei (%) 10% or higher? `COc1cc2c(NC3CCN(C(C)C)CC3)nc(N3CCC(F)(F)CC3)nc2cc1OCCCN1CCCC1`
Resp: Not met

Req: For this compound, is measured Population Fragmented Nuclei (%) 10% or higher? `CC(=O)c1cc(-c2cc(C(=O)NC3CC3)ccc2C)c2ncccn12`
Resp: Not met

Req: For this compound, is measured Population Fragmented Nuclei (%) 10% or higher? `Nc1ccc(C(=O)Nc2cccc(-c3nc(N4CCOCC4)c4oc5ncccc5c4n3)c2)cn1`
Resp: Met

Req: For this compound, is measured Population Fragmented Nuclei (%) 10% or higher? `Cc1cc2c(cc1N1C(=O)c3cccc4c(CCCO)ccc(c34)C1=O)n(C)c(=O)n2C`
Resp: Not met

###

# System: HEK-293T
# Method Summary: Multiplex assay against HEK293T
# Assay type: toxicity, cell-based
# Assay Context: human, 12 h, 10 µM, compound concentration 10 uM, replicate 2
Population Apoptotic (%) listing for selected compounds.

These recorded examples may help you get a feel for the data.
[[record]]
compound = "Cl.Cl.NC1(c2ccc(-c3nc4ccn5c(=O)[nH]nc5c4cc3-c3ccccc3)cc2)CCC1"
observed_measurement = "14%"

[[record]]
compound = "Cl.Cl.Nc1ncnc2c1c(-c1cccc(OCc3ccccc3)c1)cn2[C@H]1C[C@@H](CN2CCC2)C1"
observed_measurement = "95%"

[[record]]
compound = "CCC(=O)O[C@]1(C(=O)SCF)[C@H](C)C[C@H]2[C@@H]3C[C@H](F)C4=CC(=O)C=C[C@]4(C)[C@@]3(F)[C@@H](O)C[C@@]21C [FLUTICASONE PROPIONATE]"
observed_measurement = "25%"

[[record]]
compound = "O=C(O)c1ccc2cc(-c3ccc(O)c(C45CC6CC(CC(C6)C4)C5)c3)ccc2c1"
observed_measurement = "14%"

[[record]]
compound = "Cc1cn(-c2cc(NC(=O)c3ccc4c(c3)CN(c3cncnc3)C[C@@H]4C)cc(C(F)(F)F)c2)cn1"
observed_measurement = "16%"

[[record]]
compound = "COc1ccc(NS(=O)(=O)c2sc3ccc(Cl)cc3c2C)cc1N1CCNCC1.Cl"
observed_measurement = "57%"

[[record]]
compound = "COc1cc2c(Nc3ccc(NC(=O)c4ccccc4)cc3)ncnc2cc1OCCCN1CCOCC1"
observed_measurement = "6%"


As a next step, examine the compound that follows.
Req: Complete the entry with Population Apoptotic (%) for `CN(C)CCOc1ccc(-c2nc(-c3ccncc3)c(-c3ccc4c(c3)CC/C4=N\O)[nH]2)cc1`
Resp: 8%

###

Population Hoechst High Intensity Objects (%) listing for selected compounds.
# Test system: Fibroblast
# Method Summary: Multiplex assay against human fibroblast
# Assay type: toxicity, cell-based
# Assay Context: 48 h, 1 µM, compound concentration 1 uM, replicate 1
# output: bare number, implied unit %

These recorded examples may help you get a feel for the data.
[[record]]
compound = "CCc1cc2c(cc1CC)CC(NC[C@H](O)c1ccc(O)c3[nH]c(=O)ccc13)C2 [INDACATEROL]"
display_unit = "%"
observed_measurement = 10

[[record]]
compound = "Cc1nc(Cc2cccc(C(F)(F)F)c2)sc1-c1ccc(C(N)=O)nc1 [TP-024n]"
display_unit = "%"
observed_measurement = 19

[[record]]
compound = "Nc1ccc(C(=O)Nc2cccc(-c3nc(N4CCOCC4)c4oc5ncccc5c4n3)c2)cn1"
display_unit = "%"
observed_measurement = 17


As a next step, examine the compound that follows.
Req: Complete the entry with Population Hoechst High Intensity Objects (%) for CCn1c(-c2nonc2N)nc2cnc(Oc3cccc(NC(=O)c4ccc(OCCN5CCOCC5)cc4)c3)cc21 [GSK-269962A]
Resp: 11

###

# Tested on: Fibroblast
# Method Summary: Multiplex assay against human fibroblast
# Assay type: toxicity, cell-based
# Assay Context: 24 h, 10 µM, compound concentration 10 uM, replicate 2
Recorded Endpoint: Population Tubulin-Different-Phenotype (%)

Req: Complete the entry with Population Tubulin-Different-Phenotype (%) for `Nc1nc2c(c(N3CCNCC3)n1)CCC1=C2[C@@H]2CCCC[C@@H]2O1`
Resp: 69%

Req: Complete the entry with Population Tubulin-Different-Phenotype (%) for `COc1ccc(NS(=O)(=O)c2sc3ccc(Cl)cc3c2C)cc1N1CCNCC1.Cl`
Resp: 91%

###

# Test system: U2OS
# Method Summary: Multiplex assay against U2OS
# Assay type: toxicity, cell-based
# Assay Context: human, 12 h, 10 µM, compound concentration 10 uM, replicate 1
Recorded Endpoint: Population Pyknosed Nuclei (%)
# output: bare number, implied unit %

[[record]]
compound = "CCCn1c(=O)c2[nH]c(C34CC5CC(CC3C5)C4)nc2n(CCC)c1=O"
display_unit = "%"
observed_measurement = 17

[[record]]
compound = "Cc1nc(Cc2cccc(C(F)(F)F)c2)sc1-c1ccc(C(N)=O)nc1 [TP-024n]"
display_unit = "%"
observed_measurement = 13

[[record]]
compound = "O=C(O)c1ccc2cc(-c3ccc(O)c(C45CC6CC(CC(C6)C4)C5)c3)ccc2c1"
display_unit = "%"
observed_measurement = 4


As a next step, examine the compound that follows.
Req: Complete the entry with Population Pyknosed Nuclei (%) for `CC(=O)c1cc(-c2cc(C(=O)NC3CC3)ccc2C)c2ncccn12`
Resp: 12
